B1: library; a variant is named by its letters at N, in order (parent)
chain: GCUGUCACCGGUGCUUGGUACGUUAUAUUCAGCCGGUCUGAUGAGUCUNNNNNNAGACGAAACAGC

variants of: B1; experiment: normalized RNA/DNA level without ligand (relative to sTRSVctl = 100) (log10 (% of sTRSVctl)); HEK293T overexpressing SLC46A1; higher = less ribozyme self-cleavage, higher mRNA level; settings: without (6R,S)-folinic acid; ligand present: no
This section presents variants with their documented normalized RNA/DNA level without ligand (log10) values.
assay.endpoint: normalized RNA/DNA level without ligand (log10)

mutation.label	measured
GUUAUC	2.03
AGCGCC	2.06
AGACAU	1.99
CUCUUC	2.06
AAGGUG	1.83
GAUAAU	1.97
GUACAU	1.96
GAAUAU	2.04
AAAUCG	1.96
UACGGU	1.92
UCACGG	1.97
